meta.source: ChEMBL document CHEMBL1123124

- System: Rattus norvegicus
- protocol.details: In vivo antihistaminic activity using compound 48/80 induced lethality test in rat after 2 hr of oral administration
- Assay type: functional
reported.property: ED50 (mg/kg)
Write the value in mg/kg as a bare number.

Past entries and their recorded results:
1) Fc1ccc(Cn2c(NC3CCN(CCc4cccs4)CC3)nc3ccccc32)cc1 ... 0.63
2) Fc1ccc(Cn2c(NC3CCN(CCCNc4ccccc4)CC3)nc3ccccc32)cc1 ... 2.5
3) CNC(=O)Oc1ccc(CCN2CCC(Nc3nc4ccccc4n3Cc3ccc(F)cc3)CC2)cc1 ... 2.5
4) COc1cc(CCN2CCC(Nc3nc4ccccc4n3Cc3ccc(F)cc3)CC2)cc(OC)c1OC.Cl ... 0.63

Now look at this entry.
Req: Field: ED50 (Rattus norvegicus). Entry: COc1ccc(C(=O)OCCN2CCC(Nc3nc4ccccc4n3Cc3ccc(F)cc3)CC2)cc1.Cl
Resp: 0.63
